Here the recorded Percent Effect is given for each entry.
- Tested on: Wolbachia pipientis
- method_description: Anti-Wolbachia Cell-Based Screen
- Assay type: functional
- Set-up: scale not given: in the data most compounds retested in dose-response had high values
- test_settings: 5 µM
About 13,000 (27%) of roughly 48,000 compounds showed an effect of 50% or more. The list shows a part of the results.
Return type: number; implicit unit %.

Use the examples below as a reference point.
CCCOc1ccc(CNC2CCCc3c2cnn3CC)cc1OC (stereo not given)
1.181
Cc1ccc(NC(=O)CN2CCCNC2=O)c(SC(F)(F)F)c1
-6.443
CCN1CCO[C@]2(CCC[C@H]2COCc2csc(C)n2)C1.O=C(O)C(F)(F)F.O=C(O)C(F)(F)F
-10.73
CCc1nc(CCNC(=O)NC2CCSCC2)cs1
5.983
CCCS(=O)(=O)c1ncc(CN2CCC(CO)CC2)n1CC1CCCO1 (stereo not given)
10.89
CNC(=O)c1cnc(/C=C/c2cc(OC)c(O)c(OC)c2)s1
-7.095
CC(C)NC(=O)N1CCc2onc(C(=O)NCCN(C)C)c2C1.O=C(O)C(F)(F)F
-1.789
N#Cc1ccnc(N2CCN(C3CCOC3=O)CC2)c1 (stereo not given)
-3.021

[Q] Endpoint output: Percent Effect of Cc1nc(CN2CCc3ncnc(C4CCOC4)c3CC2)cs1.O=C(O)C(F)(F)F (stereo not given) . Value?
[A] -5.983

[Q] Endpoint output: Percent Effect of `O=C(NCCNc1ncccn1)Nc1cc(C(F)(F)F)c[nH]c1=O` . Value?
[A] -3.235

[Q] Endpoint output: Percent Effect of `O=C(Nc1cc(C(F)(F)F)c[nH]c1=O)N1CCSCC1` . Value?
[A] 108.7

[Q] Endpoint output: Percent Effect of `COc1cccc([C@@H]2CN(C3CSCCSC3)C[C@H]2C(=O)O)c1` . Value?
[A] -1.681

###

- Test system: Wolbachia pipientis
- method_description: Anti-Wolbachia Cell-Based Screen
- Assay type: functional
- Parameters: scale not given: in the data most compounds retested in dose-response had high values
- test_settings: 5 µM
The campaign covered roughly 48,000 compounds. About 13,000 (27%) showed an effect of 50% or more. Some of the results follow.
Here the recorded Percent Effect is given for each entry.
Return type: number; implicit unit %.

CN1CC(c2ccccc2)C2(CCN(C(=O)c3ccc[nH]3)CC2)C1=O (stereo not given)
-2.349
CC(NC(=O)CCC(=O)c1cccs1)c1nnc2n1CCC2 (stereo not given)
109.2
O=C(O)C(F)(F)F.O=C(O)C(F)(F)F.O=C(O)C(F)(F)F.c1c[nH]c(CN2CCC3(CC2)COCCN(CCN2CCCC2)C3)c1
-16.15

For the next question, use this molecule.
[Q] Endpoint output: Percent Effect of `COc1cc(CNC(=O)NCc2c(C)cc(C)[nH]c2=O)ccc1C` . Value?
[A] 1.509

###

- Tested on: Wolbachia pipientis
- method_description: Anti-Wolbachia Cell-Based Screen
- Assay type: functional
- Design: scale not given: in the data most compounds retested in dose-response had high values
- test_settings: 5 µM
Out of some 48,000 compounds screened, about 13,000 (27%) showed an effect of 50% or more. The list shows a part of the results.
Here the recorded Percent Effect is given for each entry.
Return type: number; implicit unit %.

Use the examples below as a reference point.
Cc1ccc(C2(CN3CCN(c4ncccn4)CC3)CCNCC2)nc1
-14.8
COCCN1CCCC12CCN(Cc1cncn1C)CC2.O=C(O)C(F)(F)F.O=C(O)C(F)(F)F
-4.301
Cn1cncc1CN1CCC2(CC1)CCN2c1ncccn1
0.5048
COCC(=O)Nc1cc(S(=O)(=O)C(F)(F)F)ccc1OC
4.656
CCn1cncc1CN1CCN(CC2(c3ccc(C)cc3)CC2)CC1.Cl
124

[Q] Endpoint output: Percent Effect of Cc1ccc(C(=O)N2CCC3(CC2)CC(c2ccccc2)C(=O)N3)o1 (stereo unspecified) . Value?
[A] -4.481

[Q] Endpoint output: Percent Effect of COCCn1cncc1CN1CCCC(C)(c2ccccc2)C1 (stereo unspecified) . Value?
[A] -12.89

[Q] Endpoint output: Percent Effect of `Cc1ccc(C2(CN3CCN(Cc4cnc(C)n4C)CC3)CC2)cc1.Cl` . Value?
[A] 125

[Q] Endpoint output: Percent Effect of `Cc1ccc(C2(CN3CCCC3)CCNCC2)nc1` . Value?
[A] 5.469

[Q] Endpoint output: Percent Effect of `Cc1ccc(C2(CN3CCN(Cc4cncn4C)CC3)CC2)cc1.Cl` . Value?
[A] 158.8

[Q] Endpoint output: Percent Effect of `CCn1cncc1Cn1cccc(C(F)(F)F)c1=O` . Value?
[A] 2.585
